- TARGET_OF_ASSAY: 5-hydroxytryptamine receptor 7 (Homo sapiens, UniProt P34969)
- Sequence (P34969 whole entry): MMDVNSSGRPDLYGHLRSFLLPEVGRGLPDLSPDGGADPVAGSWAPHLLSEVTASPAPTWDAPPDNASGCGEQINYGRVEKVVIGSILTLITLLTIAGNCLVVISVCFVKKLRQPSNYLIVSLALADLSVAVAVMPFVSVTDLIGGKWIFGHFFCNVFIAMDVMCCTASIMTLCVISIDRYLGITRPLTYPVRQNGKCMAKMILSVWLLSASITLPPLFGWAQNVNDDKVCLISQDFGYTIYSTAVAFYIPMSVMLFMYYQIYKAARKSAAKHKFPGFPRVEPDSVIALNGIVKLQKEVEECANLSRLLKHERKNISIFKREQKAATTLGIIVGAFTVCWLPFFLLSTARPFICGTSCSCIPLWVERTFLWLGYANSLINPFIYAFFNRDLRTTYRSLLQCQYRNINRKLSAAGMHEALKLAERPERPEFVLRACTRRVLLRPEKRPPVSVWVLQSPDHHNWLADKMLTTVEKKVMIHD
pKi: −log10 of the molar value.
Threshold check on pKi: at or above 6 gives Fulfilled, strictly below gives Not fulfilled.

> print(dat)
                                 mol.smiles    class.label
1    Clc1ccccc1N1CCN(Cc2ccccc2-c2ccccc2)CC1  Not fulfilled
2  COc1ccccc1-c1ccccc1CN1CCN(c2ccccc2OC)CC1      Fulfilled
3  COc1cccc(-c2ccccc2CN2CCN(c3ccccc3OC)CC2)c1      Fulfilled
4  Cc1ccc(C)c(N2CCN(Cc3ccccc3-c3ccccc3)CC2)c1  Not fulfilled
5  FC(F)(F)c1cccc(N2CCN(Cc3ccccc3-c3ccccc3)CC2)c1  Not fulfilled
6   Fc1ccc(N2CCN(Cc3ccccc3-c3ccccc3)CC2)cc1  Not fulfilled
7  COc1ccc(-c2ccccc2CN2CCN(c3ccccc3OC)CC2)cc1      Fulfilled
8  COc1ccccc1N1CCN(Cc2ccccc2-c2ccccc2Cl)CC1      Fulfilled
9  Clc1ccc(N2CCN(Cc3ccccc3-c3ccccc3)CC2)cc1  Not fulfilled
